Source: PubChem BioAssay AID1918994

# Test system: 292921-168-R-J2-PDC complex spheroid growth
# protocol_text: Anticancer human tumor 292921-168-R-J2-PDC patient-derived pancreatic carcinoma cell line growth inhibition [AhR]
# condition_description: curve of first compound; second compound 10 µM
pIC50: −log10 of the molar value.
property: pIC50

Entry Nc1ccn(C2OC(CO)C(O)C2(F)F)c(=O)n1 (stereo not given) + Cc1cncc(-c2nc(NCCc3c[nH]c4ccccc34)c3ncn(C(C)C)c3n2)c1 : reported pIC50 = ?
> 7.50

Entry O=C(c1cc(Cc2n[nH]c(=O)c3ccccc23)ccc1F)N1CCN(C(=O)C2CC2)CC1 + CC(CO)NC(=O)c1cc(-c2ccc(Cl)cc2)nn(-c2cnn(C)c2)c1=O : reported pIC50 = ?
< 5.00

Entry O=C(C=Cc1cccc(S(=O)(=O)Nc2ccccc2)c1)NO + Cc1ccccc1N=Nc1ccc(NC(=O)c2ccnn2C)c(C)c1 : reported pIC50 = ?
> 7.50

Entry Nc1ncn(C2CC(O)C(CO)S2)c(=O)n1 (stereo not given) + Cc1cncc(-c2nc(NCCc3c[nH]c4ccccc34)c3ncn(C(C)C)c3n2)c1 : reported pIC50 = ?
7.04

Continuing:
Entry Nc1ccccc1NC(=O)c1ccc(CNC(=O)OCc2cccnc2)cc1 + Cc1cncc(-c2nc(NCCc3c[nH]c4ccccc34)c3ncn(C(C)C)c3n2)c1 : reported pIC50 = ?
> 7.50

---

# Tested on: 292921-168-R-J2-PDC complex spheroid growth
# protocol_text: Anticancer human tumor 292921-168-R-J2-PDC cell line growth inhibition [AhR];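 note: spheroids exposed to compounds for seven days after three days of growth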
# condition_description: second compound 10 µM; first compound 0.0316 µM; stronger effect = lower value
property: viability, T/C (%)
Record the value in %, omitting the unit from your answer.

Entry O=C(c1cc(Cc2n[nH]c(=O)c3ccccc23)ccc1F)N1CCN(C(=O)C2CC2)CC1 + Cc1ccccc1N=Nc1ccc(NC(=O)c2ccnn2C)c(C)c1 : reported viability, T/C = ?
50.6

Entry Nc1ccccc1NC(=O)c1ccc(CNC(=O)OCc2cccnc2)cc1 + Cc1cncc(-c2nc(NCCc3c[nH]c4ccccc34)c3ncn(C(C)C)c3n2)c1 : reported viability, T/C = ?
27.8

Entry CC1COCCN1c1cc(C2(S(C)(=N)=O)CC2)nc(-c2ccnc3[nH]ccc23)n1 (centres undefined) + CC(CO)NC(=O)c1cc(-c2ccc(Cl)cc2)nn(-c2cnn(C)c2)c1=O : reported viability, T/C = ?
78.7

Then there is this compound:
Entry COc1ccc([C@@H](O)c2cc(-c3ncnc4cc(N5CCOCC5)ccc34)c(F)cc2Cl)nn1 + Cc1cncc(-c2nc(NCCc3c[nH]c4ccccc34)c3ncn(C(C)C)c3n2)c1 : reported viability, T/C = ?
42.7

---

We begin with a simple list: items and their reported IC50.
# System: 292921-168-R-J2-PDC complex spheroid growth
# protocol_text: Anticancer human tumor 292921-168-R-J2-PDC cell line growth inhibition [AhR];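 note: spheroids exposed to compounds for seven days after three days of growth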
# condition_description: curve of first compound; second compound 10 µM
# From the text: Multicellular complex tumor spheroid response to aryl hydrocarbon receptor antagonists in combination with a variety of drugs and investigational agents in selected tumor cell lines […] Compounds. […] If the clinical Cmax for an agent had not been determined, the highest concentration tested was 10 microM (Table 1). […]

// worked examples, IC50 included
Entry COc1cccc2c1C(=O)c1c(O)c3c(c(O)c1C2=O)CC(O)(C(=O)CO)CC3OC1CC(N)C(O)C(C)O1 (configuration not stated) + Cc1ccccc1N=Nc1ccc(NC(=O)c2ccnn2C)c(C)c1 : reported IC50 = ?
< 31.6 nM

Entry CC(C)c1c(-c2ccccc2)nc2c(C#N)c[nH]n2c1=O + Cc1ccccc1N=Nc1ccc(NC(=O)c2ccnn2C)c(C)c1 : reported IC50 = ?
> 10000 nM

Entry Cn1ncnc1C1c2n[nH]c(=O)c3cc(F)cc(c23)NC1c1ccc(F)cc1 (configuration not stated) + CC(CO)NC(=O)c1cc(-c2ccc(Cl)cc2)nn(-c2cnn(C)c2)c1=O : reported IC50 = ?
> 100 nM

Entry CCc1c2c(nc3ccc(O)cc13)-c1cc3c(c(=O)n1C2)COC(=O)[C@]3(O)CC + Cc1ccccc1N=Nc1ccc(NC(=O)c2ccnn2C)c(C)c1 : reported IC50 = ?
< 0.949 nM

Entry CCN(c1cc(-c2ccc(CN3CCOCC3)cc2)cc(C(=O)NCc2c(C)cc(C)[nH]c2=O)c1C)C1CCOCC1 + CC(CO)NC(=O)c1cc(-c2ccc(Cl)cc2)nn(-c2cnn(C)c2)c1=O : reported IC50 = ?
> 3000 nM

Continuing:
Entry COc1cc(Nc2ncc3c(n2)-c2ccc(Cl)cc2C(c2c(F)cccc2OC)=NC3)ccc1C(=O)O + CC(CO)NC(=O)c1cc(-c2ccc(Cl)cc2)nn(-c2cnn(C)c2)c1=O : reported IC50 = ?
< 31.6 nM

Entry CCc1c2c(nc3ccc(O)cc13)-c1cc3c(c(=O)n1C2)COC(=O)[C@]3(O)CC + CC(CO)NC(=O)c1cc(-c2ccc(Cl)cc2)nn(-c2cnn(C)c2)c1=O : reported IC50 = ?
< 0.949 nM

---

# Test system: 292921-168-R-J2-PDC complex spheroid growth
# protocol_text: Anticancer human tumor 292921-168-R-J2-PDC cell line growth inhibition [AhR];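 note: spheroids exposed to compounds for seven days after three days of growth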
# condition_description: second compound 0.316 µM; first compound 0.1 µM; stronger effect = lower value
We begin with a simple list: items and their reported viability, T/C.
Record the value in %, omitting the unit from your answer.

Report viability, T/C for COc1cccc2c1C(=O)c1c(O)c3c(c(O)c1C2=O)CC(O)(C(=O)CO)CC3OC1CC(N)C(O)C(C)O1 (centres undefined) + Cc1cncc(-c2nc(NCCc3c[nH]c4ccccc34)c3ncn(C(C)C)c3n2)c1 tested on 292921-168-R-J2-PDC complex spheroid growth.
23.2

Report viability, T/C for COc1ccc([C@@H](O)c2cc(-c3ncnc4cc(N5CCOCC5)ccc34)c(F)cc2Cl)nn1 + Cc1cncc(-c2nc(NCCc3c[nH]c4ccccc34)c3ncn(C(C)C)c3n2)c1 tested on 292921-168-R-J2-PDC complex spheroid growth.
78.2

Report viability, T/C for NS(=O)(=O)OCC1CC(n2ccc3c(NC4CCc5ccccc54)ncnc32)CC1O (centres undefined) + Cc1cncc(-c2nc(NCCc3c[nH]c4ccccc34)c3ncn(C(C)C)c3n2)c1 tested on 292921-168-R-J2-PDC complex spheroid growth.
108

Then there is this molecule:
Report viability, T/C for CC1COCCN1c1cc(-c2ccnn2C)c2ccnc(-c3ccn[nH]3)c2n1 (centres undefined) + Cc1ccccc1N=Nc1ccc(NC(=O)c2ccnn2C)c(C)c1 tested on 292921-168-R-J2-PDC complex spheroid growth.
28.8

---

# Tested on: 292921-168-R-J2-PDC complex spheroid growth
# protocol_text: Anticancer human tumor 292921-168-R-J2-PDC cell line growth inhibition [AhR];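 note: spheroids exposed to compounds for seven days after three days of growth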
# condition_description: curve of first compound; second compound 0.1 µM
property: IC50

// worked examples, IC50 included
Entry Cn1ncnc1C1c2n[nH]c(=O)c3cc(F)cc(c23)NC1c1ccc(F)cc1 (configuration not stated) + CC(CO)NC(=O)c1cc(-c2ccc(Cl)cc2)nn(-c2cnn(C)c2)c1=O : reported IC50 = ?
> 100 nM

Entry COc1cccc2c1C(=O)c1c(O)c3c(c(O)c1C2=O)CC(O)(C(=O)CO)CC3OC1CC(N)C(O)C(C)O1 (configuration not stated) + Cc1cncc(-c2nc(NCCc3c[nH]c4ccccc34)c3ncn(C(C)C)c3n2)c1 : reported IC50 = ?
< 31.6 nM

Entry COc1cc(Nc2ncc3c(n2)-c2ccc(Cl)cc2C(c2c(F)cccc2OC)=NC3)ccc1C(=O)O + Cc1ccccc1N=Nc1ccc(NC(=O)c2ccnn2C)c(C)c1 : reported IC50 = ?
< 31.6 nM

Entry COc1cccc2c1C(=O)c1c(O)c3c(c(O)c1C2=O)CC(O)(C(=O)CO)CC3OC1CC(N)C(O)C(C)O1 (configuration not stated) + Cc1ccccc1N=Nc1ccc(NC(=O)c2ccnn2C)c(C)c1 : reported IC50 = ?
< 31.6 nM

Continuing:
Entry COc1cc(Nc2ncc3c(n2)-c2ccc(Cl)cc2C(c2c(F)cccc2OC)=NC3)ccc1C(=O)O + Cc1cncc(-c2nc(NCCc3c[nH]c4ccccc34)c3ncn(C(C)C)c3n2)c1 : reported IC50 = ?
< 31.6 nM

Entry Nc1ncn(C2CC(O)C(CO)S2)c(=O)n1 (configuration not stated) + CC(CO)NC(=O)c1cc(-c2ccc(Cl)cc2)nn(-c2cnn(C)c2)c1=O : reported IC50 = ?
> 300 nM

Entry Nc1ccn(C2OC(CO)C(O)C2(F)F)c(=O)n1 (configuration not stated) + Cc1ccccc1N=Nc1ccc(NC(=O)c2ccnn2C)c(C)c1 : reported IC50 = ?
< 31.6 nM

---

# Test system: 292921-168-R-J2-PDC complex spheroid growth
# protocol_text: Anticancer human tumor 292921-168-R-J2-PDC cell line growth inhibition [AhR];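 note: spheroids exposed to compounds for seven days after three days of growth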
# condition_description: second compound 3.16 µM; first compound 0.0316 µM; stronger effect = lower value
property: viability, T/C (%)
Record the value in %, omitting the unit from your answer.

// worked examples, viability, T/C included
Entry CC(C)c1c(-c2ccccc2)nc2c(C#N)c[nH]n2c1=O + Cc1ccccc1N=Nc1ccc(NC(=O)c2ccnn2C)c(C)c1 : reported viability, T/C = ?
78.6

Entry CC1COCCN1c1cc(C2(S(C)(=N)=O)CC2)nc(-c2ccnc3[nH]ccc23)n1 (configuration not stated) + Cc1cncc(-c2nc(NCCc3c[nH]c4ccccc34)c3ncn(C(C)C)c3n2)c1 : reported viability, T/C = ?
63.3

Entry O=C(C=Cc1cccc(S(=O)(=O)Nc2ccccc2)c1)NO + CC(CO)NC(=O)c1cc(-c2ccc(Cl)cc2)nn(-c2cnn(C)c2)c1=O : reported viability, T/C = ?
64

Entry CC(C)c1c(-c2ccccc2)nc2c(C#N)c[nH]n2c1=O + CC(CO)NC(=O)c1cc(-c2ccc(Cl)cc2)nn(-c2cnn(C)c2)c1=O : reported viability, T/C = ?
86.8

Entry COc1cccc2c1C(=O)c1c(O)c3c(c(O)c1C2=O)CC(O)(C(=O)CO)CC3OC1CC(N)C(O)C(C)O1 (configuration not stated) + CC(CO)NC(=O)c1cc(-c2ccc(Cl)cc2)nn(-c2cnn(C)c2)c1=O : reported viability, T/C = ?
29.6

Continuing:
Entry Nc1ncn(C2CC(O)C(CO)O2)c(=O)n1 (configuration not stated) + Cc1ccccc1N=Nc1ccc(NC(=O)c2ccnn2C)c(C)c1 : reported viability, T/C = ?
66.3

Entry CC1COCCN1c1cc(-c2ccnn2C)c2ccnc(-c3ccn[nH]3)c2n1 (configuration not stated) + Cc1cncc(-c2nc(NCCc3c[nH]c4ccccc34)c3ncn(C(C)C)c3n2)c1 : reported viability, T/C = ?
49.7

Entry COc1cc(Nc2ncc3c(n2)-c2ccc(Cl)cc2C(c2c(F)cccc2OC)=NC3)ccc1C(=O)O + Cc1ccccc1N=Nc1ccc(NC(=O)c2ccnn2C)c(C)c1 : reported viability, T/C = ?
32.8

Entry Cn1ncnc1C1c2n[nH]c(=O)c3cc(F)cc(c23)NC1c1ccc(F)cc1 (configuration not stated) + Cc1ccccc1N=Nc1ccc(NC(=O)c2ccnn2C)c(C)c1 : reported viability, T/C = ?
72.5

Entry Nc1ncn(C2CC(O)C(CO)O2)c(=O)n1 (configuration not stated) + Cc1cncc(-c2nc(NCCc3c[nH]c4ccccc34)c3ncn(C(C)C)c3n2)c1 : reported viability, T/C = ?
76.5

Entry CC1(C)CCC(CN2CCN(c3ccc(C(=O)NS(=O)(=O)c4ccc(NCC5CCOCC5)c([N+](=O)[O-])c4)c(Oc4cnc5[nH]ccc5c4)c3)CC2)=C(c2ccc(Cl)cc2)C1 + CC(CO)NC(=O)c1cc(-c2ccc(Cl)cc2)nn(-c2cnn(C)c2)c1=O : reported viability, T/C = ?
92.9

Entry CC1(C)CCC(CN2CCN(c3ccc(C(=O)NS(=O)(=O)c4ccc(NCC5CCOCC5)c([N+](=O)[O-])c4)c(Oc4cnc5[nH]ccc5c4)c3)CC2)=C(c2ccc(Cl)cc2)C1 + Cc1ccccc1N=Nc1ccc(NC(=O)c2ccnn2C)c(C)c1 : reported viability, T/C = ?
79.8

Entry COc1cc(Nc2ncc3c(n2)-c2ccc(Cl)cc2C(c2c(F)cccc2OC)=NC3)ccc1C(=O)O + Cc1cncc(-c2nc(NCCc3c[nH]c4ccccc34)c3ncn(C(C)C)c3n2)c1 : reported viability, T/C = ?
44.6

Entry CC1COCCN1c1cc(C2(S(C)(=N)=O)CC2)nc(-c2ccnc3[nH]ccc23)n1 (configuration not stated) + Cc1ccccc1N=Nc1ccc(NC(=O)c2ccnn2C)c(C)c1 : reported viability, T/C = ?
80
